Cited source: ChEMBL document CHEMBL1131083

Reported IC90 values follow for various molecules
# Measured target: UniProt:Q72874
# Measurement description: Inhibition of HIV-1 protease in a cell culture assay using HIV-1 IIIB infected H9 cells.
# Type: functional, cell-based
Answer format: value, then unit.

Look over these answered cases.
Molecule	Measured target	Data value
CCCC1(CCc2ccccc2)CC(=O)C(C(c2cccc(NS(=O)(=O)c3ccc(C#N)cn3)c2)C(C)(C)C)=C(O)O1 (stereo not drawn)	UniProt:Q72874	0.34 µM
CCCC1(CCc2ccc(F)cc2)CC(=O)C(C(CC)c2cccc(NS(=O)(=O)c3cn(C)cn3)c2)=C(O)O1 (stereo not drawn)	UniProt:Q72874	2 µM
CCCC1(CCC)CC(=O)C(C(c2cccc(NS(=O)(=O)c3cn(C)cn3)c2)C2CC2)=C(O)O1 (stereo not drawn)	UniProt:Q72874	3 µM

Moving on to another molecule below.
Any idea what its IC90 is? The molecule is CCCC1(CCC)CC(=O)C(C(CC)c2cccc(NS(=O)(=O)c3cn(C)cn3)c2)=C(O)O1 (stereo not drawn)
2 µM

* * *

# Measured target: UniProt:Q72874
pKi: −log10 of the molar value.
label 1 means recorded pKi is 9 or above; label 0 means it is below 9.

Molecule	Label value
CCCC1(CCc2ccccc2)CC(=O)C(Cc2cccc(NS(=O)(=O)c3cn(C)cn3)c2)=C(O)O1 (stereo unspecified)	label 0

Quick check, pKi >= 9? CCCCCC1(CCCCC)CC(=O)C(C(CC)c2cccc(NS(=O)(=O)c3cn(C)cn3)c2)=C(O)O1 (stereo unspecified)
label 0

Could you please find out whether CCC[C@@]1(CCc2ccccc2)CC(=O)C([C@@H](CC)c2cccc(NS(=O)(=O)c3ccc(C#N)cn3)c2)=C(O)O1 has pKi that meets 9 or exceeds it?
label 1

Would you say CCC[C@@]1(CCc2ccccc2)CC(=O)C([C@H](CC)c2cccc(NS(=O)(=O)c3cn(C)cn3)c2)=C(O)O1 shows pKi at minimum 9?
label 1

Dear colleague, could you confirm whether CCC[C@]1(CCc2ccccc2)CC(=O)C([C@H](CC)c2cccc(NS(=O)(=O)c3cn(C)cn3)c2)=C(O)O1 has pKi at or above 9?
label 1

State whether the measured pKi reaches 9, counting equality as reaching it, for CCCC1(CCc2ccccc2)CC(=O)C(C(CC)c2cccc(NS(=O)(=O)c3ccc(C#N)cc3)c2)=C(O)O1 (stereo unspecified)
label 0

Quick check: does CCCC1(CCc2ccccc2)CC(=O)C(C(CC)c2cccc(NS(=O)(=O)c3ccc(F)cc3)c2)=C(O)O1 (stereo unspecified) have pKi greater than or equal to 9?
label 0

Please tell me: is the molecule CCC(C1=C(O)OC(COCCOCCOC)(COCCOCCOC)CC1=O)c1cccc(NS(=O)(=O)c2cn(C)cn2)c1 (stereo unspecified) at or over 9 in terms of pKi?
label 0

Is pKi at least 9? Consider CCCC1(CCc2ccccc2)CC(=O)C(C(c2cccc(NS(=O)(=O)c3ccc(C#N)cn3)c2)C(C)(C)C)=C(O)O1 (stereo unspecified)
label 0

* * *

# Measured target: Human immunodeficiency virus type 1 protease (Human immunodeficiency virus 1) (UniProt Q72874)
# Measurement description: Inhibition of HIV-1 protease in a cell culture assay using HIV-1 IIIB infected H9 cells.
# Assay type: functional, cell-based
Values of IC90 strictly less than 900 nM map to 1, and values of at least 900 nM map to 0.

Look over these answered cases.
Compound	Label value
CCCC1(CCc2ccccc2)CC(=O)C(C(c2cccc(NS(=O)(=O)c3ccc(C#N)cc3)c2)C(C)(C)C)=C(O)O1 (configuration not stated)	0
CCCC1(CCc2ccccc2)CC(=O)C(C(CC)c2cccc(NS(=O)(=O)c3ccc(C#N)cn3)c2)=C(O)O1 (configuration not stated)	1
CCC[C@@]1(CCc2ccccc2)CC(=O)C([C@@H](CC)c2cccc(NS(=O)(=O)c3ccc(C#N)cn3)c2)=C(O)O1	0
CCCC1(CCc2ccccc2)CC(=O)C(C(c2cccc(NS(=O)(=O)c3cn(C)cn3)c2)C(C)(C)C)=C(O)O1 (configuration not stated)	1
CCCC1(CCc2ccccc2)CC(=O)C(C(c2cccc(NS(=O)(=O)c3ccc(N)cn3)c2)C(C)(C)C)=C(O)O1 (configuration not stated)	1

API: the following record is the query input.
Bench note: check whether CCC[C@@]1(CCc2ccccc2)CC(=O)C([C@H](CC)c2cccc(NS(=O)(=O)c3cn(C)cn3)c2)=C(O)O1 shows IC90 below 900 nM
1
